Measurement notes: Phase 1b study in female adults with cystitis, plasma PK
Format: in vivo, human
Protocol conditions: female, human, plasma, oral, 300 mg, plasma, Day 5, PO300; read-out: AUC(0-24 hrs), Median
Measured parameter: AUC(0-t) (ng·h/mL)
Unit ng·h/mL implied. Number only.

Query: Fill in: AUC(0-t) of CN(C)c1cc(CNCC(C)(C)C)c(O)c2c1C[C@H]1C[C@H]3[C@H](N(C)C)C(O)=C(C(N)=O)C(=O)[C@@]3(O)C(O)=C1C2=O is ___
Result: 13400

---

Tested on: E. coli ESBL−
Measurement notes: In vitro MIC, 2010 surveillance isolates
Format: cell-based, Escherichia coli
Protocol conditions: N America; CLSI breakpoints
Known % R (resistance) of a selection of compounds
Unit % implied. Number only.

For orientation, consider the following solved cases.
| Cpd smiles | % R (resistance), % |
| --- | --- |
| C[C@@H](O)[C@H]1C(=O)N2C(C(=O)O)=C(SCCN=CN)C[C@H]12 | 0 |
| C[C@H]1c2cccc(O)c2C(=O)C2=C(O)[C@]3(O)C(=O)C(C(N)=O)=C(O)[C@@H](N(C)C)[C@@H]3[C@@H](O)[C@@H]21 | 16 |
| CO/N=C(\C(=O)N[C@@H]1C(=O)N2C(C(=O)O)=C(CSc3nc(=O)c(=O)[nH]n3C)CS[C@H]12)c1csc(N)n1 | 0 |

Query: Fill in: % R (resistance) of CN(C)c1cc(NC(=O)CNC(C)(C)C)c(O)c2c1C[C@H]1C[C@H]3[C@H](N(C)C)C(O)=C(C(N)=O)C(=O)[C@@]3(O)C(O)=C1C2=O is ___
Result: 0

---

Tested on: E. faecium VS
Measurement notes: In vitro MIC, 2010 surveillance isolates
Type: cell-based
Protocol conditions: L. Amer; N=51
Known MIC90 of a selection of molecules
Unit µg/mL implied. Number only.

For orientation, consider the following solved cases.
| Cpd smiles | Experimental target | Measured value |
| --- | --- | --- |
| CN[C@H](CC(C)C)C(=O)N[C@H]1C(=O)N[C@@H](CC(N)=O)C(=O)N[C@H]2C(=O)N[C@H]3C(=O)N[C@H](C(=O)N[C@H](C(=O)O)c4cc(O)cc(O)c4-c4cc3ccc4O)[C@H](O)c3ccc(c(Cl)c3)Oc3cc2cc(c3O[C@@H]2O[C@H](CO)[C@@H](O)[C@H](O)[C@H]2O[C@H]2C[C@](C)(N)[C@H](O)[C@H](C)O2)Oc2ccc(cc2Cl)[C@H]1O | E. faecium VS | 1 |
| CN(C)c1cc(NC(=O)CNC(C)(C)C)c(O)c2c1C[C@H]1C[C@H]3[C@H](N(C)C)C(O)=C(C(N)=O)C(=O)[C@@]3(O)C(O)=C1C2=O | E. faecium VS | 0.12 |

Query: Find the measured MIC90: item CN(C)c1cc(CNCC(C)(C)C)c(O)c2c1C[C@H]1C[C@H]3[C@H](N(C)C)C(O)=C(C(N)=O)C(=O)[C@@]3(O)C(O)=C1C2=O , target or system E. faecium VS.
Result: 0.12

---

Measurement notes: Phase 1b study in female adults with cystitis, plasma PK
Format: in vivo, human
Protocol conditions: female, human, plasma, oral, 300 mg, plasma, Day 5, IV_PO300; read-out: Ctrough, Mean
Measured parameter: concentration at 5 day (ng/mL)
Unit ng/mL implied. Number only.

Query: Fill in: concentration at 5 day of CN(C)c1cc(CNCC(C)(C)C)c(O)c2c1C[C@H]1C[C@H]3[C@H](N(C)C)C(O)=C(C(N)=O)C(=O)[C@@]3(O)C(O)=C1C2=O is ___
Result: 292

Data provenance: patent US10238670B2
